The following compounds are shown together with reported SI ROD values.
# Tested on: HIV-2 strain (ROD)
# assay: Anti-HIV-2
# Type: cell-based
# conditions: ratio of CC50/EC50
Quick one: just the number, no unit, thanks!

[[record]]
entrysmiles = "Cc1cc(-c2cccc(N(C)C)c2)cc(C)c1Oc1nc(NC2CCN(Cc3ccc(C(N)=O)cc3)CC2)nc2ccsc12"
observed = 4

[[record]]
entrysmiles = "Cc1cc(-c2ccco2)cc(C)c1Oc1nc(NC2CCN(Cc3ccc(S(N)(=O)=O)cc3)CC2)nc2ccsc12"
observed = 3

[[record]]
entrysmiles = "Cc1cc(-c2ccoc2)cc(C)c1Oc1nc(NC2CCN(Cc3ccc(S(N)(=O)=O)cc3)CC2)nc2ccsc12"
observed = 2


Next, consider the following compound.
Q: May I ask what SI ROD has been recorded for `Cc1cc(-c2cccs2)cc(C)c1Oc1nc(NC2CCN(Cc3ccc(S(N)(=O)=O)cc3)CC2)nc2ccsc12` ?
A: 4

---

# Test system: HIV-1 L100I mutant strain
# assay: microbe, parasite or virus in culture
# Assay type: cell-based
# conditions: CC50/EC50
Classify: Met when SI L100I is strictly less than 200; Not met when SI L100I is not.

[[record]]
entrysmiles = "Cc1cc(-c2ccoc2)cc(C)c1Oc1nc(NC2CCN(Cc3ccc(C(N)=O)cc3)CC2)nc2ccsc12"
group = "Met"


Q: Report whether reported SI L100I is lower than 200 (strictly) for `Cc1cc(-c2cccc(N(C)C)c2)cc(C)c1Oc1nc(NC2CCN(Cc3ccc(S(N)(=O)=O)cc3)CC2)nc2ccsc12`
A: Met

Q: Report whether reported SI L100I is lower than 200 (strictly) for `Cc1cc(-c2ccc(N(C)C)cc2)cc(C)c1Oc1nc(NC2CCN(Cc3ccc(C(N)=O)cc3)CC2)nc2ccsc12`
A: Met

Q: Report whether reported SI L100I is lower than 200 (strictly) for `Cc1cc(-c2cccc(C#N)c2)cc(C)c1Oc1nc(NC2CCN(Cc3ccc(S(N)(=O)=O)cc3)CC2)nc2ccsc12`
A: Not met

---

# System: HIV-2 strain (ROD)
# assay: Anti-HIV-2
# Assay type: cell-based
# conditions: Human immunodeficiency virus 2, MT4, read-out: EC50 ROD
The following compounds are shown together with reported EC50 values.

[[record]]
compound = "O=C1Nc2ccc(Cl)cc2[C@@](C#CC2CC2)(C(F)(F)F)O1 [EFV, efavirenz, reference compound]"
observed = "> 5.33 µM"

[[record]]
compound = "Cc1cc(-c2ccc(N(C)C)cc2)cc(C)c1Oc1nc(NC2CCN(Cc3ccc(C(N)=O)cc3)CC2)nc2ccsc12"
observed = "> 23.5 µM"

[[record]]
compound = "Cc1cc(-c2cccs2)cc(C)c1Oc1nc(NC2CCN(Cc3ccc(C(N)=O)cc3)CC2)nc2ccsc12"
observed = "> 20.5 µM"

[[record]]
compound = "Cc1cc(-c2ccc(F)cc2)cc(C)c1Oc1nc(NC2CCN(Cc3ccc(C(N)=O)cc3)CC2)nc2ccsc12"
observed = "≥ 5.66 µM"

[[record]]
compound = "Cc1cc(-c2ccsc2)cc(C)c1Oc1nc(NC2CCN(Cc3ccc(S(N)(=O)=O)cc3)CC2)nc2ccsc12"
observed = "4.8 µM"

[[record]]
compound = "Cc1cc(-c2ccc(C#N)cc2)cc(C)c1Oc1nc(NC2CCN(Cc3ccc(C(N)=O)cc3)CC2)nc2ccsc12"
observed = "> 5.49 µM"


Q: State its EC50 on HIV-2 strain (ROD): `Cc1cc(-c2cccc(C#N)c2)cc(C)c1Oc1nc(NC2CCN(Cc3ccc(C(N)=O)cc3)CC2)nc2ccsc12`
A: > 4.17 µM

Q: State its EC50 on HIV-2 strain (ROD): Cc1ccnc2c1NC(=O)c1cccnc1N2C1CC1 [NVP, Nevirapine, reference compound]
A: > 9.51 µM
